Taken from ChEMBL document CHEMBL2029274.

Test: Metabolic stability in mouse liver microsomes assessed as compound remaining at 1 uM after 30 mins in the absence of NADPH
Format: ADME, Microsome
Settings: read-out: Stability
experimental-readout: remaining at 0.5 h, 1 µM (%)

O=C(CCC1=CCN(CCc2ccc(C(F)(F)F)cc2)C1=O)NO :: 73.9
O=C(CCC1=CCN(CCc2ccccc2)C1=O)NO :: 85.5
COc1ccc(CCN2CC=C(CCC(=O)NO)C2=O)cc1 :: 92
O=C1CC2(CCCC2)CC(=O)N1CCCCN1CCN(c2ncccn2)CC1 :: 0.1

----------
System: MDA-MB-231
Assay: Antiproliferative activity against human MDA-MB-231 cells
Format: functional
experimental-readout: GI50 (nM)

O=C(CCC1=CCN(CCc2ccc(C(F)(F)F)cc2)C1=O)NO :: 1170
COc1ccc(CCN2CC=C(CCC(=O)NO)C2=O)cc1 :: 1080
COc1ccccc1CCCN1CC=C(CCC(=O)NO)C1=O :: 1500
